# procedure-summary: Pharmacokinetic properties in mice
# Assay type: in vivo
# conditions: po 20 mg/kg vs iv 5 mg/kg
# reported F; entries follow
Numbers only; they are read as %.

# input Suppose we examine the compound CCCNNC(=O)c1ccc(CNC(=O)c2cc3ccccc3o2)cc1 [LEE16] ; what F value has been reported?
# output 111

# input Suppose we examine the compound CCCNNC(=O)/C=C/c1ccc(CNCCc2c(C)[nH]c3ccccc23)cc1 [Comparative example 2 LP97/13a, reference compound] ; what F value has been reported?
# output 19.8

# input Suppose we examine the compound CCCNNC(=O)c1ccc(CNC(=O)c2cc3ccccc3s2)cc1 [LEE17] ; what F value has been reported?
# output 64.6

# input Suppose we examine the compound CCCNNC(=O)c1ccc(CNC(=O)c2cc3ccccc3[nH]2)cc1 [LEE15] ; what F value has been reported?
# output 112
